Origin of the recorded values: ChEMBL document CHEMBL2021887

System: MT2
Assay: Cytotoxicity against non-infected human MT2 cells at 10 uM after 48 hrs by CellTiter Glo assay
Assay type: cell-based
Details: mt2, 48 h
Mark label 1 for reported Activity of 70% or greater; mark label 0 for anything smaller.

Consider the following illustrative entries.
CC1(C)[C@@H](O)CC[C@]2(C)[C@H]3CC[C@@H]4C5=C[C@](C)(CO)CC[C@]5(C)CC[C@@]4(C)[C@]3(C)CC[C@@H]12	label 0
CC(=O)O[C@H]1CC[C@]2(C)[C@H]3CC[C@@H]4C5=CC(C)(C)CC[C@]5(C)CC[C@@]4(C)[C@]3(C)C[C@@H](O)[C@H]2C1(C)C	label 1
CC1(C)C=C2[C@H]3CC[C@@H]4[C@@]5(C)CC[C@H](O)C(C)(C)[C@@H]5[C@H](O)C[C@@]4(C)[C@]3(C)CC[C@@]2(C)CC1	label 0
CC1(C)C=C2[C@H]3CC[C@@H]4[C@@]5(C)CCC(=O)C(C)(C)[C@@H]5CC[C@@]4(C)[C@]3(C)CC[C@@]2(C)C[C@H]1O	label 1

Say whether CC(=O)OC[C@@]1(C)C=C2[C@H]3CC[C@@H]4[C@@]5(C)CCC(=O)C(C)(C)[C@@H]5CC[C@@]4(C)[C@]3(C)CC[C@@]2(C)CC1 shows Activity of 70% or more. label 1

---

Item-by-item account of Activity
Test system: MT2
Assay: Cytotoxicity against non-infected human MT2 cells at 10 uM after 48 hrs by CellTiter Glo assay
Type: cell-based
Details: mt2, 48 h
Give the value, in units of %, as a plain number.

Here are 3 compounds together with their reported answers.
CC1(C)C(=O)CC[C@]2(C)[C@H]3CC[C@@H]4C5=C[C@](C)(CO)CC[C@]5(C)CC[C@@]4(C)[C@]3(C)C[C@@H](O)[C@@H]12	62
CC1(C)C=C2[C@H]3CC[C@@H]4[C@@]5(C)CCC(=O)C(C)(C)[C@@H]5[C@H](O)C[C@@]4(C)[C@]3(C)CC[C@@]2(C)CC1	222
CC1(C)C=C2[C@H]3CC[C@@H]4[C@@]5(C)CCC(=O)C(C)(C)[C@@H]5CC[C@@]4(C)[C@]3(C)CC[C@@]2(C)CC1=O	222

Lab note: next compound to report on.
Dear colleague, I am looking for the recorded Activity of the following compound: CC(=O)O[C@H]1CC[C@]2(C)[C@H]3CC[C@@H]4C5=CC(C)(C)[C@H](OC(C)=O)C[C@]5(C)CC[C@@]4(C)[C@]3(C)CC[C@H]2C1(C)C 93

---

Test system: Human immunodeficiency virus 1
Experiment: Antiviral activity against luciferase tagged VSV envelope pseudotyped HIV1 infected in human MT2 cells dosed simultaneously with virus infection measured 48 hrs post-infection by recombinant virus assay
Format: functional, organism-based
Settings: Human immunodeficiency virus 1, MT2, 48 h
Item-by-item account of pIC50
In textbook form, pIC50 equals minus log to base ten of the concentration in mol/L.

CC1(C)C=C2[C@H]3CC[C@@H]4[C@@]5(C)CCC(=O)C(C)(C)[C@@H]5[C@H](O)C[C@@]4(C)[C@]3(C)CC[C@@]2(C)CC1	5.29

Dear colleague, I am looking for the recorded pIC50 of the following compound: CC1(C)[C@@H](O)CC[C@]2(C)[C@H]3CC[C@@H]4C5=C[C@](C)(CO)CC[C@]5(C)CC[C@@]4(C)[C@]3(C)CC[C@@H]12 5.18

Dear colleague, I am looking for the recorded pIC50 of the following compound: CC1(C)C(=O)CC[C@]2(C)[C@H]3CC[C@@H]4C5=C[C@](C)(CO)CC[C@]5(C)CC[C@@]4(C)[C@]3(C)C[C@@H](O)[C@@H]12 4.70

Dear colleague, I am looking for the recorded pIC50 of the following compound: CC1(C)C=C2[C@H]3CC[C@@H]4[C@@]5(C)CCC(=O)C(C)(C)[C@@H]5CC[C@@]4(C)[C@]3(C)CC[C@@]2(C)CC1=O 5.50

Dear colleague, I am looking for the recorded pIC50 of the following compound: CC1(C)C=C2[C@H]3CC[C@@H]4[C@@]5(C)CC[C@H](O)C(C)(C)[C@@H]5CC[C@@]4(C)[C@]3(C)CC[C@@]2(C)C[C@H]1O 4.27

Dear colleague, I am looking for the recorded pIC50 of the following compound: CC1(C)C=C2[C@H]3CC[C@@H]4[C@@]5(C)CCC(=O)C(C)(C)[C@@H]5CC[C@@]4(C)[C@]3(C)CC[C@@]2(C)C[C@H]1O 4.70

Dear colleague, I am looking for the recorded pIC50 of the following compound: CC1(C)C=C2[C@H]3CC[C@@H]4[C@@]5(C)CC[C@H](O)C(C)(C)[C@@H]5[C@H](O)C[C@@]4(C)[C@]3(C)CC[C@@]2(C)CC1 5.36
